assayed.target: hGcgR (Homo sapiens, UniProt P47871)
Sequence (P47871 26-477): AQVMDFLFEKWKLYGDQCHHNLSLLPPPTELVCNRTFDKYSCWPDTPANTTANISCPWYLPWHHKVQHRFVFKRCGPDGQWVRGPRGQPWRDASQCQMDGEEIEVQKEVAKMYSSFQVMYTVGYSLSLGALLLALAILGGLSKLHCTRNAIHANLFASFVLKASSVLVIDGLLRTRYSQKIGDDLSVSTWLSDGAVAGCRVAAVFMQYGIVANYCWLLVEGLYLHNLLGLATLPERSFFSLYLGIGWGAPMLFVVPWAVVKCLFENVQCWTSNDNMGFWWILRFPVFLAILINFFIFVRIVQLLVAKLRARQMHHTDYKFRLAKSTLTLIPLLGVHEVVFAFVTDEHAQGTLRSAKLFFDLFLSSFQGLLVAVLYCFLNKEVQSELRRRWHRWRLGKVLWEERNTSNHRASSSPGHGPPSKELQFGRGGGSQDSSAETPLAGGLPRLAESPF
procedure.details: Functional cAMP activation in the presence of 0.1% casein (no HSA);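 note: intracellular cAMP rise after 30 min at 37 °C, read by HTRF against a cAMP standard curve, scaled from buffer only (0%) to maximal control ligand response (100%)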
Type: cell-based
test.parameters: in the presence of 0.1% casein (no HSA); geometric mean; read-out: Relative cAMP EC50, hGcgR
pEC50: −log10 of the molar value. Starred links: 1 amine or outer side, 2 acyl side, 3 side chain; linkers in the order of their positions; H or OH if unused. Non-standard residues stand in square brackets, D forms with d. Groups on a side chain read outwards from the residue. No end group written: not given here. *: point of attachment. C20 diacid = O=C(O)CCCCCCCCCCCCCCCCCCC(=O)*; C18 diacid = O=C(O)CCCCCCCCCCCCCCCCC(=O)*; αMePhe(2-F) = C[C@](N)(Cc1ccccc1F)C(=O)O; γGlu = O=C(O)[C@H](CCC(=O)[*:2])N[*:1]; αMe4Pal = C[C@](N)(Cc1ccncc1)C(=O)O; αMeY = C[C@](N)(Cc1ccc(O)cc1)C(=O)O; 4Pal = N[C@@H](Cc1ccncc1)C(=O)O; αMeL = CC(C)C[C@](C)(N)C(=O)O; αMeS = C[C@](N)(CO)C(=O)O; Orn = NCCC[C@H](N)C(=O)O; Dab = NCC[C@H](N)C(=O)O; AEEA = NCCOCCOCC(=O)O; Aib = CC(C)(N)C(=O)O
Each entry below carries its recorded pEC50.

substance	pEC50
H-Y[Aib]QGTFTSD[4Pal]SQ[αMeL]LD[Orn]K([AEEA-γGlu-C18 diacid])AQ[αMe4Pal]AFIE[αMeY]LIE[Aib]GPSSGAPPPSGSEE-NH2 [Example 1108]	8.30
H-Y[Aib]QGTFTSDFS[Orn][αMeL]LDKK([AEEA-γGlu-C18 diacid])AQ[Aib]AFIEYLLE[Aib]GPSSGAPPPSGE-NH2 [Example 110]	8.61
H-Y[Aib]QGTFTSD[4Pal]S[Dab][αMeL]LD[Orn]K([γGlu-γGlu-C18 diacid])AQ[αMe4Pal]AFIE[αMe4Pal]LLAGGPSSGAPPPEGSEE-NH2 [Example 1055]	8.73
H-Y[Aib]QGTFTSD[4Pal]SQ[αMeL]LD[Orn]K([AEEA-γGlu-C18 diacid])AQ[αMe4Pal]AFIEYLIQ[Aib]GPSSGEPPPSGSEE-NH2 [Example 1096]	8.40
H-Y[Aib]QGTFTSDFS[Orn][αMeL]LDKK([AEEA-AEEA-γGlu-C18 diacid])AQ[Aib]AFIEYLLE[Aib]GESSGAPPPSGS-NH2 [Example 179]	8.32
Y[Aib]QGTFTSD[4Pal]SQ[αMeL]LDKK([γGlu-dE-dE-C18 diacid])AQ[αMe4Pal]AFIEYLIE[Aib]GPSSGAPPPSGSEE-NH2 [Example 930]	7.89
H-Y[Aib]QGTFTSDFSK[αMeL]LDKK([AEEA-γGlu-C18 diacid])AQ[Aib]AFIEYLIEGGESSGAPPPSGS-NH2 [Example 215]	8.01
H-Y[Aib]QGT[αMePhe(2-F)]TSDYSKLLDKIAQK([AEEA-γGlu-C20 diacid])AFIEYLIEGGPSSGAPPPEGE-NH2 [Example 357]	8.21
H-Y[Aib]QGT[αMePhe(2-F)]TSD[4Pal][αMeS]I[αMeL]LD[Orn]K([AEEA-γGlu-γGlu-C18 diacid])AQ[αMe4Pal]EFI[dE][αMeY]LIEGGPSSGAPPPSGE-NH2 [Example 1176]	8.74
Y[Aib]QGTFTSD[4Pal]SQ[αMeL]LDKK([dE-γGlu-dE-C18 diacid])AQ[αMe4Pal]AFIEYLIE[Aib]GPSSGAPPPSGS-NH2 [Example 923]	8.04
H-Y[Aib]QGTFTSD[4Pal]S[Orn][αMeL]LD[Orn]K([γGlu-γGlu-C18 diacid])AQ[αMe4Pal]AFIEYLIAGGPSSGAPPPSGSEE-NH2 [Example 1059]	8.12
